Data origin, for the record: patent US20250011363A1

target.of.assay: acetylcholine receptor (Homo sapiens, UniProt P02708)
Sequence (P02708 21-457): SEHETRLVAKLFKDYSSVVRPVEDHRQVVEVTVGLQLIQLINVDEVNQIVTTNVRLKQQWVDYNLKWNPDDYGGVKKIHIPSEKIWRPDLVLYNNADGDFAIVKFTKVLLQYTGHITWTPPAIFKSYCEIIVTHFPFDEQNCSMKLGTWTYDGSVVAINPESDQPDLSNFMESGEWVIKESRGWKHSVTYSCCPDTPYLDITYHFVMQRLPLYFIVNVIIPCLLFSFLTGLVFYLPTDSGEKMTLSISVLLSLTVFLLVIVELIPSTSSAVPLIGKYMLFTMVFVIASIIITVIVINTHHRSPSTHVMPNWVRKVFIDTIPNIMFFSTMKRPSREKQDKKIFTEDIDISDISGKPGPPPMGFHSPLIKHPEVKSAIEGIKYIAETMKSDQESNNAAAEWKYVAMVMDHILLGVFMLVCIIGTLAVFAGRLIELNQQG
assay.procedure: SPR binding affinity (RU) of optimized 5mer/6mer/7mer peptides, Examples 6-7
assay.setup: SPR, Resonance Units; peptides tested at 10 μM; 6mer-2 Bottom sequence
The following ranges of Binding affinity define the classes used here: bottom (below 20 Ru), middle (20 Ru to below 30 Ru), top (30 Ru or more)

1) 6mer-2-877 (KPPERR)	bottom
2) 6mer-2-918 (KNWMRK)	top
3) 6mer-2-882 (RTPAKR)	bottom
4) 6mer-2-992 (RMHFRR)	top

Which Binding affinity band matches 6mer-2-712 (KIPHRR) ?
middle

Also check 6mer-2-910 (RHEHRR)
middle

Also check 6mer-2-874 (KIHFRK)
top

Also check 6mer-2-978 (KEPHRR)
middle

Also check 6mer-2-864 (RKCAKK)
bottom

Also check 6mer-2-897 (RPAHKK)
bottom

Also check 6mer-2-606 (RKPFRR)
bottom

Also check 6mer-2-617 (RCNGRR)
top

Also check 6mer-2-715 (RATHRK)
top

Also check 6mer-2-603 (KFHARR)
top
